UniProtKB P34913 IC50 data
Sequence (P34913 whole entry): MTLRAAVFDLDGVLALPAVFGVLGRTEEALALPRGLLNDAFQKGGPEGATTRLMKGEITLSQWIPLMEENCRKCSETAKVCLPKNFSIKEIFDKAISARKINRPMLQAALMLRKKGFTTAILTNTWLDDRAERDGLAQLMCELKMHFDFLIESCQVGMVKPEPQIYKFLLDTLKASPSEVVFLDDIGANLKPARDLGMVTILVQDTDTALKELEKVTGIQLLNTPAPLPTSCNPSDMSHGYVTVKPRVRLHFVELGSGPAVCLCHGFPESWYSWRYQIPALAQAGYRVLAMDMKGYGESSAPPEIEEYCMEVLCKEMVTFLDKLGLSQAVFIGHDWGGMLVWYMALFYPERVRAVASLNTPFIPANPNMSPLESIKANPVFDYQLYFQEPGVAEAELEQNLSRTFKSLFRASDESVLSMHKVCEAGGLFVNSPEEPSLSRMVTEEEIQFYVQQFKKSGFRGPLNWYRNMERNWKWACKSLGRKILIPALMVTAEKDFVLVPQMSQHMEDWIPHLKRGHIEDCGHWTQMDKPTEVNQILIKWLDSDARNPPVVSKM
measurement type: IC50

>>> measured_result("O=C(NCc1ccc(Cl)cc1Cl)N1CC2(C1)CN(c1ncccn1)C2")
"2320 nM"
>>> measured_result("O=C(O)c1ccc(N2CC3CN(C(=O)NCc4ccc(Cl)cc4Cl)CC32)cc1 (racemic)")
"351 nM"
>>> measured_result("O=C(NCc1ccc(Cl)cc1Cl)N1CC2(CCN2S(=O)(=O)c2ccc(F)cc2)C1")
"284 nM"
>>> measured_result("O=C(NCc1ccc(Cl)cc1Cl)N1CC2CN(C(=O)c3ccccc3)C2C1 (racemic)")
"183 nM"
>>> measured_result("O=C(NCc1ccc(Cl)cc1Cl)N1CC2(CCN2c2ncccn2)C1")
"125 nM"
>>> measured_result("O=C(NCc1ccc(Cl)cc1Cl)N[C@H]1CCC12CN(S(=O)(=O)c1ccc(Cl)cc1)C2")
"678 nM"
>>> measured_result("O=C(NCCCc1ccccc1)[C@H]1CCC12CN(S(=O)(=O)c1ccccc1Cl)C2")
"288 nM"
>>> measured_result("O=C(NCc1ccc(Cl)cc1Cl)N1CC2CN(S(=O)(=O)c3ccccc3)C2C1 (racemic)")
"238 nM"
>>> measured_result("O=C(NCc1ccc(Cl)cc1Cl)N1CCC12CN(S(=O)(=O)c1ccc(Cl)cc1)C2")
"321 nM"
